B1: TPR 5TU (parent)
chain: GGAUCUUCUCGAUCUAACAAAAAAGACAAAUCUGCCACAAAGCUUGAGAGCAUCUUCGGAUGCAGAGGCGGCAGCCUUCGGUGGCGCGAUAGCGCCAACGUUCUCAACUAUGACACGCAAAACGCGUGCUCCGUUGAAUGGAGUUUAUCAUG

# Variants of: B1
# EXPERIMENTAL_PROTOCOL: polymerase ribozyme fitness, log enrichment relative to wild type (log ratio); higher = more active; in vitro selection for triplet polymerase activity
Fewer inactive variants are shown than the library holds.

| MUTANT_LABEL | BOUND_SIGN | polymerase ribozyme fitness (log ratio) |
| --- | --- | --- |
| A23G U61G C93G G126A | ≤ | -4.2 |
| C85U G152U | = | -3.73 |
| A52C C85A A121G | = | -1.8 |
| G83C C116U A120C U135G | = | -3.87 |
| C85G A122C | = | -1.98 |
| G34U G67A C76U C85A | ≤ | -4.2 |
| A28G A52C U53C C57U C87A G141A | ≤ | -4.2 |
| A16U G58A C93A | = | -3.46 |
| A30G U53A G62U A64G | ≤ | -4.2 |
| A37G U45G C57G C95U | = | -3.33 |
| C57G C85U | = | -1.28 |
| G128U A137U | = | -3.34 |
| U55G G84A C99A A120G C131U | = | -2.08 |
| A22U U55A C85G | = | -2.29 |
| A20U C32G C57U A73G U82G G92A | ≤ | -4.2 |
| A23U G50A C132U G140C | ≤ | -4.2 |
| G83A G126C | = | 0.173 |
| C38U C95A C108U | = | -3.39 |
| A47U G80A A91C | ≤ | -4.2 |
| G84U A106U | = | -2.69 |
| U45A C96A | = | -2.56 |
| U6A C27U A41C U55A G62C G71C C85A G143U | ≤ | -4.2 |
